Target entity: UniProt:P01116
Sequence (P01116 whole entry): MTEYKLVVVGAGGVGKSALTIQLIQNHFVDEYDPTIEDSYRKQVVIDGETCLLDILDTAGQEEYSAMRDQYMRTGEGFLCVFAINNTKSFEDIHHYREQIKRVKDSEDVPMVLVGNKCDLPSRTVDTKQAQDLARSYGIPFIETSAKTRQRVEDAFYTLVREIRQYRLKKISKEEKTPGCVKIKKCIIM
Assay protocol: Binding to KRAS by surface plasmon resonance (SPR), Single Cycle Kinetics
Condition context: SPR, Single Cycle Kinetics, 1:1 binding model; GDP-bound KRAS wild-type protein; read-out: KRAS KD
Reported Kd values for the following compounds.
The reply should contain only the number, in pM.

Look over these answered cases.
CCC[C@H]1C(=O)N[C@@H]([C@@H](C)CC)C(=O)N(C)CC(=O)N(C)[C@H]2C/C=C\CCN(C2=O)[C@@H](Cc2ccc(C(F)(F)F)cc2)C(=O)N(C)CC(=O)N[C@@H](CCc2ccc(Cl)c(Cl)c2)C(=O)N2C[C@H](OCC)C[C@H]2C(=O)NC2(CCC2)C(=O)N(C)[C@@H](C2CCCC2)C(=O)N(C)[C@H](C(=O)N(C)C)CC(=O)N1C :: 190
CC[C@H](C)[C@@H]1NC(=O)[C@H](CC)N(C)C(=O)C[C@@H](C(=O)N(C)C)N(C)C(=O)[C@H](C2CCCC2)N(C)C(=O)C2(CCC2)NC(=O)[C@@H]2CCCN2C(=O)[C@H](CCc2cc(F)c(C(F)(F)F)c(F)c2)NC(=O)CN(C)C(=O)[C@H](CC2CCC(F)(F)CC2)N2CC/C=C\C[C@@H](C2=O)N(C)C(=O)CN(C)C1=O :: 270
CCO[C@@H]1C[C@H]2C(=O)NC3(CCC3)C(=O)N(C)[C@@H](C3CCCC3)C(=O)N(C)[C@H](C(=O)N3CCC3)CC(=O)N(C)[C@@H](CC)C(=O)N[C@@H]([C@@H](C)CC)C(=O)N(C)CC(=O)N(C)[C@H]3C/C=C\CCN(C3=O)[C@@H](CC3CCC(F)(F)CC3)C(=O)N(C)CC(=O)N[C@@H](CCc3cc(F)c(C(F)(F)F)c(F)c3)C(=O)N2C1 :: 190
CCO[C@@H]1C[C@H]2C(=O)NC3(CCCC3)C(=O)N(C)[C@@H](C3CCCC3)C(=O)N(C)[C@H](C(=O)N(C)C)CC(=O)N(C)[C@@H](CC)C(=O)N[C@@H]([C@@H](C)CC)C(=O)N(C)CC(=O)N(C)[C@H]3CC[C@@H](C)CN(C3=O)[C@@H](Cc3ccc(C(F)(F)F)cc3)C(=O)N(C)CC(=O)N[C@@H](CCc3cc(F)c(C(F)(F)F)c(F)c3)C(=O)N2C1 :: 57
CCO[C@@H]1C[C@H]2C(=O)NC3(CCC3)C(=O)N(C)[C@@H](C3CCCC3)C(=O)N(C)[C@H](C(=O)N(C)C)CC(=O)N(C)[C@@H](CC)C(=O)N[C@@H]([C@@H](C)CC)C(=O)N(C)CC(=O)N(C)[C@H]3C/C=C\CCN(C3=O)[C@@H](Cc3ccc(C(F)(F)F)cc3)C(=O)N(C)CC(=O)N[C@@H](CCc3ccc(C(F)(F)F)c(OC)c3)C(=O)N2C1 :: 58

Query compound follows.
What value of measured Kd is listed for CCO[C@@H]1C[C@H]2C(=O)NC3(CCC3)C(=O)N(C)[C@@H](C3CCCC3)C(=O)N(C)[C@H](C(=O)N(C)C)CC(=O)N(C)[C@@H](CC3CCC3)C(=O)N[C@@H]([C@@H](C)CC)C(=O)N(C)CC(=O)N(C)[C@H]3C/C=C\CCN(C3=O)[C@@H](CC3CCCCC3)C(=O)N(C)CC(=O)N[C@@H](CCc3cc(F)c(C(F)(F)F)c(F)c3)C(=O)N2C1 ? 180
